System: extensively drug-resistant A. baumannii clinical isolates (planktonic cell)
Experiment: microbe, parasite or virus in culture
Type: cell-based, Acinetobacter baumannii
Details: Acinetobacter baumannii, isolate AB4; planktonic; broth microdilution, CAMHB, 37°C 16–20 h, OD600; read-out: MIC
From the text: Nine XDRAB strains were isolated from clinical specimens such as the septum, urine, or respiratory lavage fluid of patients from the respiratory intensive care unit, intensive care unit, the cardiothoracic surgery department, and the neurology department at the First Affiliated Hospital of Chengdu Medical College during the period from 2018 to 2020 (Chengdu, Sichuan, China). […]
experimental endpoint: MIC

Tell me reported MIC for CCN1CCN(C(=O)N[C@@H](C(=O)N[C@@H]2C(=O)N3[C@@H]2SC(C)(C)[C@@H]3C(=O)O)c2ccccc2)C(=O)C1=O [Piperacillin, piperacillin] , tested with extensively drug-resistant A. baumannii clinical isolates (planktonic cell).
> 1020 µg/mL

Please answer likewise for NCC[C@H](O)C(=O)N[C@@H]1C[C@H](N)[C@@H](O[C@H]2O[C@H](CN)[C@@H](O)[C@H](O)[C@H]2O)[C@H](O)[C@H]1O[C@H]1O[C@H](CO)[C@@H](O)[C@H](N)[C@H]1O [Amikacin, amikacin]
> 1020 µg/mL

Please answer likewise for CN(C)[C@@H]1C(O)=C(C(N)=O)C(=O)[C@@]2(O)C(O)=C3C(=O)c4c(O)cccc4[C@@](C)(O)[C@H]3C[C@@H]12 [Tetracycline, tetracycline]
> 1020 µg/mL
